Source listed as patent US8435975B2.

tested on: 5α-reductase; assay: In vivo effect on serum testosterone level (5α-reductase inhibitory activity), ELISA; design: species or system Sprague Dawley rats; details: Sprague Dawley male rats, intraperitoneal, Finasteride 40 mg/kg and equimolar dose of compounds, 6 hr after treatment
// reported Serum levels of Testosterone, T for each item listed
I only need the number, in ng/mL, no unit after it.

Recorded Serum levels of Testosterone, T, per entry:
| smiles-text | uom | observed-result |
| --- | --- | --- |
| C[C@]12CC[C@H](OC(=O)c3ccc([N+](=O)[O-])cc3)CC1=CC[C@@H]1[C@@H]2CC[C@]2(C)C(=NO)CC[C@@H]12 | ng/mL | 1.01 |
| C[C@]12CC[C@H](OC(=O)c3ccc(N)cc3)CC1=CC[C@@H]1[C@@H]2CC[C@]2(C)C(=NO)CC[C@@H]12 | ng/mL | 1.19 |
| C[C@]12CC[C@H](OC(=O)c3ccc(O)cc3)CC1=CC[C@@H]1[C@@H]2CC[C@]2(C)C(=NO)CC[C@@H]12 | ng/mL | 0.73 |
| Cc1ccc(C(=O)O[C@H]2CC[C@@]3(C)C(=CC[C@@H]4[C@@H]3CC[C@]3(C)C(=NO)CC[C@@H]43)C2)cc1 | ng/mL | 1.16 |
| C[C@]12CC[C@H](OC(=O)c3ccc(Cl)cc3)CC1=CC[C@@H]1[C@@H]2CC[C@]2(C)C(=NO)CC[C@@H]12 | ng/mL | 0.95 |

Challenge: Supply measured Serum levels of Testosterone, T of C[C@]12CC[C@H](OC(=O)COc3ccccc3)CC1=CC[C@@H]1[C@@H]2CC[C@]2(C)C(=NO)CC[C@@H]12 in your reply.
Response given: 0.85

###

tested on: mouse macrophages (Balb C); experiment: In vitro cytotoxicity using mouse macrophages (acute toxicity), MTT assay; assay type: cell-based; details: both, Balb C, mouse, 48 h, 2 μg/ml
measured-metric: % viable Cells (mean ± SEM) (%)
Supply the numeric figure in %, leaving out any unit text.

Some molecules with known % viable Cells (mean ± SEM) results, for comparison:
| molecule | % viable Cells (mean ± SEM) (%) |
| --- | --- |
| CC(C)(C)NC(=O)[C@H]1CC[C@H]2[C@@H]3CC[C@H]4NC(=O)C=C[C@]4(C)[C@H]3CC[C@]12C [Finasteride, reference compound] | 81.18 |
| C[C@]12CC[C@H](OC(=O)c3ccc(N)cc3)CC1=CC[C@@H]1[C@@H]2CC[C@]2(C)C(=NO)CC[C@@H]12 | 75.82 |
| C[C@]12CC[C@H](OC(=O)c3ccc([N+](=O)[O-])cc3)CC1=CC[C@@H]1[C@@H]2CC[C@]2(C)C(=NO)CC[C@@H]12 | 76.30 |
| Cc1ccc(C(=O)O[C@H]2CC[C@@]3(C)C(=CC[C@@H]4[C@@H]3CC[C@]3(C)C(=NO)CC[C@@H]43)C2)cc1 | 69.10 |
| C[C@]12CC[C@H](OC(=O)c3ccc(Cl)cc3)CC1=CC[C@@H]1[C@@H]2CC[C@]2(C)C(=NO)CC[C@@H]12 | 77.14 |

Read the next record carefully.
Challenge: Give me measured % viable Cells (mean ± SEM), please, for this molecule: C[C@]12CC[C@H](OC(=O)c3ccc(O)cc3)CC1=CC[C@@H]1[C@@H]2CC[C@]2(C)C(=NO)CC[C@@H]12
Response given: 56.88

###

test system: human prostate cancer cell line (DU-145); experiment: Growth inhibitory activity assay (MTT assay), in vitro antiproliferative activity; type: cell-based; details: DU-145 cells, 5.0 μg/ml, 48 hr
measured-metric: % growth inhibition (mean ± SEM) (%)
# value in %; strip the unit string

| compound | uom | % growth inhibition (mean ± SEM) |
| --- | --- | --- |
| Cc1ccc(C(=O)O[C@H]2CC[C@@]3(C)C(=CC[C@@H]4[C@@H]3CC[C@]3(C)C(=NO)CC[C@@H]43)C2)cc1 | % | 92.94 |
| CC(C)(C)NC(=O)[C@H]1CC[C@H]2[C@@H]3CC[C@H]4NC(=O)C=C[C@]4(C)[C@H]3CC[C@]12C [Finasteride, reference compound] | % | 78.51 |

Challenge: Return % growth inhibition (mean ± SEM) for the following compound: C[C@]12CC[C@H](OC(=O)c3ccc(N)cc3)CC1=CC[C@@H]1[C@@H]2CC[C@]2(C)C(=NO)CC[C@@H]12
Response given: 91.02

Challenge: Consider the compound C[C@]12CC[C@H](OC(=O)c3ccc(O)cc3)CC1=CC[C@@H]1[C@@H]2CC[C@]2(C)C(=NO)CC[C@@H]12 and give its recorded % growth inhibition (mean ± SEM).
Response given: 91.54

###

system: mouse macrophages (Balb C); test: In vitro cytotoxicity using mouse macrophages (acute toxicity), MTT assay; type: cell-based; conditions: both, Balb C, mouse, 48 h, 0.5 μg/ml
Friendly reminder: % viable Cells (mean ± SEM) below 80% is Met, at or above is Not met.

| compound | system-tested | label-class |
| --- | --- | --- |
| Cc1ccc(C(=O)O[C@H]2CC[C@@]3(C)C(=CC[C@@H]4[C@@H]3CC[C@]3(C)C(=NO)CC[C@@H]43)C2)cc1 | mouse macrophages (Balb C) | Met |
| C[C@]12CC[C@H](OC(=O)c3ccc([N+](=O)[O-])cc3)CC1=CC[C@@H]1[C@@H]2CC[C@]2(C)C(=NO)CC[C@@H]12 | mouse macrophages (Balb C) | Not met |
| CC(C)(C)NC(=O)[C@H]1CC[C@H]2[C@@H]3CC[C@H]4NC(=O)C=C[C@]4(C)[C@H]3CC[C@]12C [Finasteride, reference compound] | mouse macrophages (Balb C) | Not met |

Challenge: Lab note: confirm whether the reported % viable Cells (mean ± SEM) for this compound is below 80%, equality not counting. compound: C[C@]12CC[C@H](OC(=O)c3ccc(Cl)cc3)CC1=CC[C@@H]1[C@@H]2CC[C@]2(C)C(=NO)CC[C@@H]12
Response given: Not met

###

experiment: In vitro cytotoxicity using mouse macrophages (acute toxicity), MTT assay; format: cell-based; settings: both sexes, Balb C; mouse macrophages, from linear equation of MTT data; read-out: LC50 (concentration lethal to 50% population of cells)
measured-metric: CC50 at 48 h (µM)
Give just the numeric value; µM need not be written.

| molecule | uom | CC50 at 48 h |
| --- | --- | --- |
| C[C@]12CC[C@H](OC(=O)c3ccc(N)cc3)CC1=CC[C@@H]1[C@@H]2CC[C@]2(C)C(=NO)CC[C@@H]12 | µM | 29.4 |

Challenge: Report measured CC50 at 48 h; entry is C[C@]12CC[C@H](OC(=O)c3ccc(Cl)cc3)CC1=CC[C@@H]1[C@@H]2CC[C@]2(C)C(=NO)CC[C@@H]12
Response given: 24

Challenge: Supply reported CC50 at 48 h belonging to this molecule: C[C@]12CC[C@H](OC(=O)c3ccc(O)cc3)CC1=CC[C@@H]1[C@@H]2CC[C@]2(C)C(=NO)CC[C@@H]12
Response given: 22

Challenge: Give the reported value of CC50 at 48 h for this record: Cc1ccc(C(=O)O[C@H]2CC[C@@]3(C)C(=CC[C@@H]4[C@@H]3CC[C@]3(C)C(=NO)CC[C@@H]43)C2)cc1
Response given: 22

Challenge: Report CC50 at 48 h, nothing else, for this molecule: CC(C)(C)NC(=O)[C@H]1CC[C@H]2[C@@H]3CC[C@H]4NC(=O)C=C[C@]4(C)[C@H]3CC[C@]12C [Finasteride, reference compound]
Response given: 28.2

Challenge: Complete the entry with CC50 at 48 h for C[C@]12CC[C@H](OC(=O)COc3ccccc3)CC1=CC[C@@H]1[C@@H]2CC[C@]2(C)C(=NO)CC[C@@H]12
Response given: 89

Challenge: Consider the molecule C[C@]12CC[C@H](OC(=O)c3ccccc3)CC1=CC[C@@H]1[C@@H]2CC[C@]2(C)C(=NO)CC[C@@H]12 [Compound 13, 17-oximino-5-androsten-3β-yl benzoate] . State its measured CC50 at 48 h.
Response given: 89.4

Challenge: Answer with reported CC50 at 48 h of C[C@]12CC[C@H](OC(=O)c3ccc([N+](=O)[O-])cc3)CC1=CC[C@@H]1[C@@H]2CC[C@]2(C)C(=NO)CC[C@@H]12
Response given: 19.5

###

Recorded inhibition at 0.5 µg/mL values for a group of compounds are listed next.
test system: human prostate cancer cell line (DU-145); experiment: Growth inhibitory activity assay (MTT assay), in vitro antiproliferative activity; type: cell-based; details: Homo sapiens, DU-145, 48 h, DU-145 cells, 0.5 μg/ml, 48 hr; read-out: % growth inhibition (mean ± SEM)
Field: numeric (%). Do not append units.

| compound | system-tested | inhibition at 0.5 µg/mL / % |
| --- | --- | --- |
| C[C@]12CC[C@H](OC(=O)c3ccc([N+](=O)[O-])cc3)CC1=CC[C@@H]1[C@@H]2CC[C@]2(C)C(=NO)CC[C@@H]12 | human prostate cancer cell line (DU-145) | 60.5 |
| CC(C)(C)NC(=O)[C@H]1CC[C@H]2[C@@H]3CC[C@H]4NC(=O)C=C[C@]4(C)[C@H]3CC[C@]12C [Finasteride, reference compound] | human prostate cancer cell line (DU-145) | 8.83 |

Challenge: Report inhibition at 0.5 µg/mL under test system human prostate cancer cell line (DU-145) for Cc1ccc(C(=O)O[C@H]2CC[C@@]3(C)C(=CC[C@@H]4[C@@H]3CC[C@]3(C)C(=NO)CC[C@@H]43)C2)cc1 .
Response given: 63

Challenge: // fetch inhibition at 0.5 µg/mL for C[C@]12CC[C@H](OC(=O)COc3ccccc3)CC1=CC[C@@H]1[C@@H]2CC[C@]2(C)C(=NO)CC[C@@H]12 ; system: human prostate cancer cell line (DU-145)
Response given: 24.2

Challenge: // output inhibition at 0.5 µg/mL; input C[C@]12CC[C@H](OC(=O)c3ccc(N)cc3)CC1=CC[C@@H]1[C@@H]2CC[C@]2(C)C(=NO)CC[C@@H]12 ; system human prostate cancer cell line (DU-145)
Response given: 62.1
